Test: activity coefficient (dimensionless); of the first substance listed, at infinite dilution; xn = mol fraction of the nth substance listed
Conditions: 368.15 K; 101 kPa; Liquid; Chromatography; x1 = 0
property measured: activity coefficient

# example entries with known answers
molecule | property measured | measured
C=CCCC [1-pentene] + CCCCCC[n+]1ccc2ccccc2c1.N#C[S-] | activity coefficient | 9.6
CCCC(C)=O [pentan-2-one] + CCCCCC[n+]1ccc2ccccc2c1.N#C[S-] | activity coefficient | 2.13
C=CCCCCCC [oct-1-ene] + CCCCCC[n+]1ccc2ccccc2c1.N#C[S-] | activity coefficient | 22.2

1: C1CCCCCC1 [cycloheptane] + CCCCCC[n+]1ccc2ccccc2c1.N#C[S-]
2: CCCCCCCCC [nonane] + CCCCCC[n+]1ccc2ccccc2c1.N#C[S-]
Qu. Higher activity coefficient between 1 and 2 ? // return label of chosen record
Ans. 2
